molecular target: MLKL (Homo sapiens, UniProt Q8NB16); test: MLKL degradation assay in HepG2 cell line (western blot); type: cell-based; set-up: endogenous in cells; host or cells: HepG2 or HaCaT; settings: compound 1 μM; cell line not given
Sequence (Q8NB16 whole entry): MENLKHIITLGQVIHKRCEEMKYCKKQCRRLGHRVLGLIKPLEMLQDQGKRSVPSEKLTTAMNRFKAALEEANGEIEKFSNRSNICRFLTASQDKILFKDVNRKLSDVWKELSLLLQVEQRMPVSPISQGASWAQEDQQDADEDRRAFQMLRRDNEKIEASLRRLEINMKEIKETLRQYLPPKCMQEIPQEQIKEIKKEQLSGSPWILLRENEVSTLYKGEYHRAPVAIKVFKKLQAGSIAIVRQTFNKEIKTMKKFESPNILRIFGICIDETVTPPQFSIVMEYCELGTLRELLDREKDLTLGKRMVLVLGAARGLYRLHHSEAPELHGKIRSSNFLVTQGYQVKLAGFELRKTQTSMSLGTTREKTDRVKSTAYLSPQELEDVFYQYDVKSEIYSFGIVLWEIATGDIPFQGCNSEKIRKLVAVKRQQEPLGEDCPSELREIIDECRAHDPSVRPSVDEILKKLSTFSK
measurement-type: Degradation assay (Degradation %) 1 μM

Some compounds with known Degradation assay (Degradation %) 1 μM results, for comparison:
Nc1ncc(-c2cnn(C3CCN(CCCN4CCN(C(=O)Cc5cccc(NC6=CC(=O)N(C7CCC(=O)NC7=O)C6=O)c5)CC4)CC3)c2)nc1C(=O)O[C@@H](C(=O)Nc1ccc(F)cc1)c1ccccc1 (stereo partly shown) :: 81.34
Nc1ncc(-c2cnn([C@H]3CCN(CC4CCN(C(=O)CNc5ccc6c(c5)C(=O)N(C5CCC(=O)NC5=O)C6=O)CC4)C3)c2)nc1C(=O)OC(C(=O)Nc1ccc(F)cc1)c1ccccc1 (stereo partly shown) :: 60.51

(A) Nc1ncc(-c2cnn(C3CCN(C(=O)C4CCN(C(=O)CNc5ccc6c(c5)C(=O)N(C5CCC(=O)NC5=O)C6=O)CC4)CC3)c2)nc1C(=O)O[C@@H](C(=O)Nc1ccc(F)cc1)c1ccccc1 (stereo partly shown)
(B) Nc1ncc(-c2ccc(N3CCN(CC4CCN(C(=O)COc5cccc6c5C(=O)N(C5CCC(=O)NC5=O)C6=O)CC4)CC3)nc2)nc1C(=O)OC(C(=O)Nc1ccc(F)cc1)c1ccccc1 (stereo not shown)
Asked: Lower Degradation assay (Degradation %) 1 μM: A or B ? Lab log: write the label of the selected item as the result.
Given back: B

* * *

system: FADD−/− Jurkat cells; assay: Necroptosis inhibition assay, TNF-α-induced necroptosis (CellTiter-Glo 2.0); format: cell-based, human; details: compound 1 μM; TNF-α 15 ng/mL
measurement-type: Necroptosis inhibition assay (Rescue %) 1 μM
Value expressed in %; do not type the unit.

Asked: Tell me Necroptosis inhibition assay (Rescue %) 1 μM reported for Nc1ncc(-c2cnn(C3CCN(CCC4CCN(C(=O)COc5ccc6c(c5)C(=O)N(C5CCC(=O)NC5=O)C6=O)CC4)CC3)c2)cc1C(=O)OC(C(=O)Nc1ccc(F)cc1)c1ccccc1 (centres unmarked)
Given back: 55.98

Asked: Provide measured Necroptosis inhibition assay (Rescue %) 1 μM value, entry: Nc1ncc(-c2cnn(C3CCN(CCOC4CCN(C(=O)C5CCN(c6ccc7c(c6)C(=O)N(C6CCC(=O)NC6=O)C7=O)CC5)CC4)CC3)c2)nc1C(=O)OC(C(=O)Nc1ccc(F)cc1)c1ccccc1 (centres unmarked)
Given back: 72.38

Asked: Let me know recorded Necroptosis inhibition assay (Rescue %) 1 μM for Nc1ncc(-c2cnn(C3CCN(CCOCCNC(=O)C4CCN(c5ccc6c(c5)C(=O)N(C5CCC(=O)NC5=O)C6=O)CC4)CC3)c2)nc1C(=O)O[C@@H](C(=O)Nc1ccc(F)cc1)c1ccccc1 (some centres unmarked) , thanks.
Given back: 49.22

Asked: Tell me its Necroptosis inhibition assay (Rescue %) 1 μM given Nc1ncc(-c2cnn(C3CCN(CCCCCCNC(=O)C4CCN(c5ccc6c(c5)C(=O)N(C5CCC(=O)NC5=O)C6=O)CC4)CC3)c2)nc1C(=O)O[C@@H](C(=O)Nc1ccc(F)cc1)c1ccccc1 (some centres unmarked) as the entry.
Given back: 71.74

Asked: Give the value of Necroptosis inhibition assay (Rescue %) 1 μM reported for the following: Nc1ncc(-c2cnn(C3CCN(CCOCCOCCOCCNC(=O)C4CN(c5ccc6c(c5)C(=O)N(C5CCC(=O)NC5=O)C6=O)C4)CC3)c2)nc1C(=O)O[C@@H](C(=O)Nc1ccc(F)cc1)c1ccccc1 (some centres unmarked)
Given back: 12.69

Taken from patent US20240252488A1.
